target: Cyclin-dependent kinase 5 (Homo sapiens) (UniProt Q00535); details: at 1 µM;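 further: mean value of inhibition, with the enzyme tested as CDK5/p35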
Sequence (Q00535 whole entry, looked up): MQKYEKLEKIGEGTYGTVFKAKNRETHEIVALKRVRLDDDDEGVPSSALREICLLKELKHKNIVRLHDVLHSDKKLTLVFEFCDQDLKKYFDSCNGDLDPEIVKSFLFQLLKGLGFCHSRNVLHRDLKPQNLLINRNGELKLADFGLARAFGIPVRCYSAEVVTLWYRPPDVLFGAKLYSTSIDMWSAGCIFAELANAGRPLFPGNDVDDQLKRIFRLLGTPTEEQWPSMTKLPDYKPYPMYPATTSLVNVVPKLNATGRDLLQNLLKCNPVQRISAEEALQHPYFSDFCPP

molecule | unit_spec | inhibition
COC(=O)Nc1nc2ccc(S(=O)(=O)c3ccc(NC(=O)Nc4cc(C(F)(F)F)ccc4F)cc3)cc2[nH]1 | % | 2.38
CCn1c(-c2nonc2N)nc2ccccc21 | % | 1.17
O=S(=O)(CCNCc1ccc(-c2ccc3ncnc(Nc4ccc(OCc5cccc(F)c5)c(Cl)c4)c3c2)o1)c1ccccc1 | % | 1.21
CCCN1CCC(c2ccc(Nc3nc(Nc4cc(F)ccc4C(N)=O)c4cc[nH]c4n3)c(OC)c2)CC1 | % | 6.47
c1ccc(-c2nc3n(c2-c2ccc4c(c2)OCO4)CCC3)nc1 | % | 1.86
CC1=C(C(=O)Nc2cc(Cl)c3[nH]ncc3c2)C(c2ccc(C(F)(F)F)cc2)CC(=O)N1 (centres undefined) | % | 1.62
Clc1ccc(-c2nn3ncccc3c2-c2ccnc(Nc3ccccc3)n2)cc1 | % | 1.41
CNC(=O)c1cncc(/C=C/c2ccccc2Cl)c1 | % | 2
CNC(=O)c1cc(-c2ccc(F)cc2)cc(-c2ccc(S(=O)(=O)N3CCCC3)cc2)c1N | % | 1.55

---

molecular target: Serine/threonine-protein kinase Nek7 (Homo sapiens); conditions: at 1 µM;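 further: reported values are mean inhibition of NEK7 from the GSK PKIS kinase screening panel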
Criterion: inhibition meeting or surpassing 3%. Met: 1.0. Not met: 0.0.

chem_smiles | group
c1ccc(COc2ccc(Nc3ncnc4ccc(-c5ccco5)cc34)cc2)cc1 | 0.0
Cc1ccc(O)cc1Nc1ccnc2cc(-c3ccccn3)ccc12 | 1.0
CCCN1CCC(c2ccc(Nc3nc(Nc4cc(F)ccc4C(N)=O)c4cc[nH]c4n3)c(OC)c2)CC1 | 1.0
CC(C)COC(=O)c1ccc2c(c1)/C(=C/Nc1ccc(S(N)(=O)=O)cc1)C(=O)N2 | 0.0
COC(=O)c1sc(-n2cnc3cc(OC)c(OC)cc32)cc1OCc1ccccc1C(F)(F)F | 1.0

---

target: Phosphatidylinositol 4,5-bisphosphate 3-kinase catalytic subunit delta isoform (Homo sapiens) (UniProt O00329); settings: at 1 µM;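 further: reported values are mean percent inhibition of PI3K-delta activity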
Sequence (O00329 whole entry, canonical isoform): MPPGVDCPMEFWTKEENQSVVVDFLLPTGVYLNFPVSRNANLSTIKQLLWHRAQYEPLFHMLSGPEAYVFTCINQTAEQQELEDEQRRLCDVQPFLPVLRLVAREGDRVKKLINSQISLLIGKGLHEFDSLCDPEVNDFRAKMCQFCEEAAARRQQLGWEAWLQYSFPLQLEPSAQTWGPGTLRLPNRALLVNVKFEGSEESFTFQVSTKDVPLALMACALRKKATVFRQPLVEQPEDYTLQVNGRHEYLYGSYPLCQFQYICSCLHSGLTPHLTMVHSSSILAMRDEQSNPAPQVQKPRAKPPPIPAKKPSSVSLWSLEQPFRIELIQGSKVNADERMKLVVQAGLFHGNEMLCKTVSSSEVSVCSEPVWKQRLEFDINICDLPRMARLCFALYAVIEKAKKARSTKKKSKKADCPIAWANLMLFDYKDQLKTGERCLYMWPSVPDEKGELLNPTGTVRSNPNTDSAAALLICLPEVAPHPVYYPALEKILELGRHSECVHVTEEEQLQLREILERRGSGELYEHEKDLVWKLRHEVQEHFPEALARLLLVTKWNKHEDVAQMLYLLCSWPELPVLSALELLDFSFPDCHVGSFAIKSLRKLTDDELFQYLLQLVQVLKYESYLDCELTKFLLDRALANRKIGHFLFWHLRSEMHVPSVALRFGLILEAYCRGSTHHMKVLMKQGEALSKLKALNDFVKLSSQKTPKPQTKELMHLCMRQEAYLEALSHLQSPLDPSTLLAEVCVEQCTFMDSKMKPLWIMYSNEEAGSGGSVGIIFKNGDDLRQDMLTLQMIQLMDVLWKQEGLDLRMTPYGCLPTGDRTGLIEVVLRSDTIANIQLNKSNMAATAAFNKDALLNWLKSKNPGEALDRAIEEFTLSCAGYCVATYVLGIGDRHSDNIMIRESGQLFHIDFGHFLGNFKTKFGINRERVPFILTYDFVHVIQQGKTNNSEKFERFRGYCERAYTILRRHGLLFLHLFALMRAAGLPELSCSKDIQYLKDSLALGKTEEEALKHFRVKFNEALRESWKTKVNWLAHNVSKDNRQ
readout_name: inhibition (%)

chem_smiles | value_reported
COc1ccc2[nH]c3c4[nH]c5ccc(OC)cc5c4c4c(c3c2c1)C(=O)NC4=O | 10.1
Clc1ccc(-c2nn3ncccc3c2-c2ccnc(Nc3ccccc3)n2)cc1 | 7.17
CC(C)(CO)CNC(=O)c1ccc2c(c1)/C(=N/Nc1ccc(S(N)(=O)=O)cc1)C(=O)N2 | 2.18
c1ccc(COc2ccc(Nc3ncnc4ccc(-c5ccco5)cc34)cc2)cc1 | 4.52
COc1ccc(-c2nn3ncccc3c2-c2ccnc(Nc3ccc4c(c3)OCCO4)n2)cc1 | 5.91
NC(=O)c1sc(-n2cnc3ccc(C(F)(F)F)cc32)cc1OCc1ccccc1Br | 4.21
Nc1nc(-c2cccc(Cl)c2)c(-c2ccc3ncccc3n2)s1 | 6.4
CCn1c(-c2nonc2N)nc2c(C#CC(C)(C)O)nc(OC[C@H](N)c3ccccc3)cc21 | 1.52
COc1ccc(-c2oc3ncnc(N)c3c2-c2ccc(NC(=O)Nc3cc(C(F)(F)F)ccc3F)cc2)cc1 | 22.4

---

biological target: Proto-oncogene tyrosine-protein kinase receptor Ret (Homo sapiens) (UniProt P07949); settings: at 0.1 µM;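 further: reported figure is the mean of RET inhibition measurements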
Sequence (P07949 whole entry): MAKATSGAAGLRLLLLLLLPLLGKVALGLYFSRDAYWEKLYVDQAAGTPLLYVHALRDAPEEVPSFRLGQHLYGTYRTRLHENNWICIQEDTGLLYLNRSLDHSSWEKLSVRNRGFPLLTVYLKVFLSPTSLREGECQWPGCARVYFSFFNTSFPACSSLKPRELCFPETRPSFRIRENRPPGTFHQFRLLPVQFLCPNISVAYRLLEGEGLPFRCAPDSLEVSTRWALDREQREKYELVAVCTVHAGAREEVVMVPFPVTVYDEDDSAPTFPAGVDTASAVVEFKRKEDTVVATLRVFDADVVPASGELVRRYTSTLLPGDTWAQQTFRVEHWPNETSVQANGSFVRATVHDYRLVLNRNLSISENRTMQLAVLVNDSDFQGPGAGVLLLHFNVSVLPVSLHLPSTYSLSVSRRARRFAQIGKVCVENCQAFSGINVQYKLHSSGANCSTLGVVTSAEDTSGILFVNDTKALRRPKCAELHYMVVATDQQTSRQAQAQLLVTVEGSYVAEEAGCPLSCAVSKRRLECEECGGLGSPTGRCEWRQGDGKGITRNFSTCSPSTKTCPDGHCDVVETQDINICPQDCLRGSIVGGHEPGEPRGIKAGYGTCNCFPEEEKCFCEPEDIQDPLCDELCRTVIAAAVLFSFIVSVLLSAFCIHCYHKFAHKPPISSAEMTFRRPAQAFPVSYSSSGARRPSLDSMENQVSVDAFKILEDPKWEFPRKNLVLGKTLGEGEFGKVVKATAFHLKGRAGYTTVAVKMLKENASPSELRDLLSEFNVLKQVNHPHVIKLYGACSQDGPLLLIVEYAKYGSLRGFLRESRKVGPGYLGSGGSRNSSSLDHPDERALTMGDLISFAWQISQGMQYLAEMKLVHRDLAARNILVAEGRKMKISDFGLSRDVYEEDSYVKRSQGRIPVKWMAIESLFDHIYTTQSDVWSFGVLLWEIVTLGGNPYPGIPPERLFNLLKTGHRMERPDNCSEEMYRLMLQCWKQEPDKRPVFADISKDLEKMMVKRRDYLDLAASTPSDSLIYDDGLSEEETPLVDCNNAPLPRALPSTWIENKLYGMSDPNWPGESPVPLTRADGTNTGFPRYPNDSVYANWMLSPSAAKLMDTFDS

chem_smiles | inhibition
CCn1c(-c2nonc2N)nc2ccccc21 | 1.65%
COc1ccc2[nH]c3c4[nH]c5ccc(OC)cc5c4c4c(c3c2c1)C(=O)NC4=O | 40.5%
CCn1cc(-c2ccnc3[nH]ccc23)c(-c2cccc(NC(=O)Nc3ccc(OCc4ccccc4)cc3)c2)n1 | 0.08%
NS(=O)(=O)c1ccc(Nc2ncc(-c3ccccc3)o2)cc1 | 3.66%
CS(=O)(=O)CCNCc1ccc(-c2ccc3ncnc(Nc4ccc(OCc5ccccc5)c(C(F)(F)F)c4)c3c2)o1 | 5.03%
COc1ccc2c(-c3ccnc(Nc4cccc(OC(F)(F)F)c4)n3)cnn2n1 | 3.2%
CNC(=O)c1cncc(/C=C/c2ccccc2Cl)c1 | 4.56%
CCCN(CCS(C)(=O)=O)Cc1ccc(-c2ccc3ncnc(Nc4ccc(OCc5cccc(F)c5)c(Cl)c4)c3c2)o1 | 4.68%
COc1cccc(-c2c[nH]c3c(N/N=C/c4ccncc4)ncnc23)c1 | 10.7%
CCc1nn2ncccc2c1-c1ccnc(NC2CC2)n1 | 3.64%
